target: M4 muscarinic receptor (Homo sapiens)
Construct: expressed in transfected cells; host or cells: CHO (M4-CHO)
Sequence (P08173 whole entry): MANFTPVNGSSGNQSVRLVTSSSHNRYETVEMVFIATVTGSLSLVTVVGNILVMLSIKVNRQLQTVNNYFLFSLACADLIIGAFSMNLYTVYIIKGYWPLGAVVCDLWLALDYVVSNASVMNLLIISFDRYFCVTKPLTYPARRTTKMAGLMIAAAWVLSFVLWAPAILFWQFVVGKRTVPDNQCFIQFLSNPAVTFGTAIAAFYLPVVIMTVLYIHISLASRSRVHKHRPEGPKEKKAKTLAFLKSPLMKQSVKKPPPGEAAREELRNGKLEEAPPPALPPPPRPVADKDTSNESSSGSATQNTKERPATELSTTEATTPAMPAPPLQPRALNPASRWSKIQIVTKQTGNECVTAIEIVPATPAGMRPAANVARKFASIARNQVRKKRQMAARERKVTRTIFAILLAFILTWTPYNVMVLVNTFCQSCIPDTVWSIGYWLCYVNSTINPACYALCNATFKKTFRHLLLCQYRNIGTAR
protocol.text: Functional mobilization of intracellular calcium (FLIPR) in M4-CHO cells
Format: cell-based
cond: M4 receptor, calcium mobilization; read-out: M4 Efficacy
outcome.measure: Emax

{"columns": ["compound", "target", "Emax"],
 "data": [
  ["Clc1ccc2c(c1)C1(CCN(CC3CCCCC3)CC1)CN2 [compound 157]", "M4 muscarinic receptor (Homo sapiens)", "> 85%"]
]}

Enquiry: Value lookup for Emax; key = CCOC(=O)N1CCC(N2CCC3(CC2)CN(CC(C)=O)c2ccc(F)cc23)CC1 [compound 249]
Return: 65 to 85%

Enquiry: Value lookup for Emax; key = CC(=O)N1CC2(CCN(C3CC4CCC(C3)N4C(=O)O[C@H]3CCOC3)CC2)c2cc(F)ccc21 (some centres unmarked) [compound 47]
Return: 65 to 85%

Enquiry: Value lookup for Emax; key = COC(=O)N1CCC(N2CCC3(CC2)CN(C(C)=O)c2ccc(C)cc23)CC1 [compound 312]
Return: < 65%

Enquiry: Value lookup for Emax; key = CCCCOC(=O)N1C2CCC1CC(N1CCC3(CC1)COc1ccc(F)cc13)C2 (centres unmarked) [compound 286]
Return: < 65%

###

Measured Emax of individual entries
target: M1 muscarinic receptor (Homo sapiens, UniProt P11229)
Construct: expressed in transfected cells; host or cells: CHO (M1-CHO)
Sequence (P11229 whole entry): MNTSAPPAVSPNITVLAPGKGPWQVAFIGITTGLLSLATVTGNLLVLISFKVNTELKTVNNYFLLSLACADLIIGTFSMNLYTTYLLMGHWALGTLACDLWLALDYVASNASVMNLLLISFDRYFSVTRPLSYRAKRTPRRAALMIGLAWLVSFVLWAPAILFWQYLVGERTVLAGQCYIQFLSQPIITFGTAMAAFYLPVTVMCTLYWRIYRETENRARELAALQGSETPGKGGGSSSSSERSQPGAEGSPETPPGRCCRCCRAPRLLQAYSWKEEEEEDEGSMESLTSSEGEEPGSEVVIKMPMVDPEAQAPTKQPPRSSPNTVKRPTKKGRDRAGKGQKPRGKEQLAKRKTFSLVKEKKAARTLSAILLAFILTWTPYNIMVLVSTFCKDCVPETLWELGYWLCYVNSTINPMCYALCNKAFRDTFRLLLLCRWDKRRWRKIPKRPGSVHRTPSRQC
protocol.text: Functional mobilization of intracellular calcium (FLIPR) in M1-CHO cells
Assay type: cell-based
cond: Table 4; 100% efficacy is the maximum response obtained with the Carbachol control

{"columns": ["compound", "Emax"],
 "data": [
  ["CC#CCOC(=O)N1CC[C@@H](CN2CCC3(CC2)CN(C(=O)N(C)C)c2ccc(F)cc23)C1", "25 to 100%"],
  ["CC#CC(C)OC(=O)N1CC[C@@H](CN2CCC3(CC2)CN(C(=O)N(C)C)c2ccc(F)cc23)C1 (stereo partly shown)", "25 to 100%"],
  ["CN(C)C(=O)N1CC2(CCN(C3CCNCC3)CC2)c2cc(F)ccc21", "< 25%"],
  ["Cc1ccc2c(c1)C1(CCN(C3CC4CCC3C4)CC1)CN2C(=O)c1snnc1C (stereo not shown)", "< 25%"]
]}

Enquiry: Value lookup for Emax; key = CCOC(=O)N1CCC(N2CCC3(CC2)CN(c2ccccc2OC)c2ccc(F)cc23)CC1
Return: 25 to 100%

Enquiry: Value lookup for Emax; key = COCCN1CC2(CCN(C3CC4CCC(C4)C3)CC2)c2cc(F)ccc21 (stereo not shown)
Return: 25 to 100%

Enquiry: Value lookup for Emax; key = CN(C)C(=O)N1CC2(CCN(C3CCN(c4nccnc4C#N)CC3)CC2)c2cc(F)ccc21
Return: 25 to 100%

Enquiry: Value lookup for Emax; key = CC(C)OC(=O)N1CC[C@@H](CN2CCC3(CC2)CN(C(=O)N(C)C)c2ccc(F)cc23)C1
Return: 25 to 100%

Enquiry: Value lookup for Emax; key = CCOC(=O)N1CCC(N2CCC3(CCCc4ccccc43)CC2)CC1
Return: > 100%

###

target: M1 muscarinic receptor (Homo sapiens)
Construct: expressed in transfected cells; host or cells: CHO (M1-CHO)
protocol.text: Functional mobilization of intracellular calcium (FLIPR) in M1-CHO cells
Format: cell-based
cond: Table 4; 100% efficacy is the maximum response obtained with the Carbachol control
Measured Emax of individual entries

Known Emax results, listed for orientation:
{"columns": ["molecule", "Emax"],
 "data": [
  ["O=C(N[C@H]1CC2(CCN([C@@H]3CC4CC[C@@H]3C4)CC2)c2ccccc21)C1CC1", "25 to 100%"],
  ["CC(=O)N[C@H]1CCC2(CCN(CC3CC4C=CC3C4)CC2)c2ccccc21 (some centres unmarked)", "25 to 100%"],
  ["c1ccc2c(c1)CCCC21CCN(C2C[C@@H]3CC[C@@H](C2)C3)CC1 (some centres unmarked)", "25 to 100%"],
  ["CS(=O)(=O)N[C@H]1CCC2(CCN(C3CCCCCC3)CC2)c2ccccc21", "25 to 100%"]
]}

Enquiry: M1 muscarinic receptor (Homo sapiens) / Emax / C#CCOC(=O)N1CCC(N2CCC3(CC2)CN(C(C)=O)c2ccccc23)CC1 : value?
Return: > 100%

Enquiry: M1 muscarinic receptor (Homo sapiens) / Emax / CC(=O)N1CC2(CCN(CC3CCOCC3)CC2)c2cc(F)ccc21 : value?
Return: < 25%

Enquiry: M1 muscarinic receptor (Homo sapiens) / Emax / O=C(O)C1CC2(CCN(C3CCCCCC3)CC2)c2ccccc21 (centres unmarked) : value?
Return: 25 to 100%

Enquiry: M1 muscarinic receptor (Homo sapiens) / Emax / CC(=O)N[C@H]1CCC2(CCN(CCC3CC4CCC3C4)CC2)c2ccccc21 (some centres unmarked) : value?
Return: 25 to 100%
